# key: entry, value: IC50
# experimental system: KRAS Q61H (Homo sapiens (Human), UniProt P01116+P62937, Q61H)
# Sequence (P01116-2 other isoform, or with tags, fused parts or gaps Q61H): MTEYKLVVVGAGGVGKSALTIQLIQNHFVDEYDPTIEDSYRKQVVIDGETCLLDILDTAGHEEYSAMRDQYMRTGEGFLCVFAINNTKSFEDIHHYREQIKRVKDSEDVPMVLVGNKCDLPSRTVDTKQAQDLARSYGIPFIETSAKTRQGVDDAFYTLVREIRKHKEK
# Sequence (P62937 whole entry): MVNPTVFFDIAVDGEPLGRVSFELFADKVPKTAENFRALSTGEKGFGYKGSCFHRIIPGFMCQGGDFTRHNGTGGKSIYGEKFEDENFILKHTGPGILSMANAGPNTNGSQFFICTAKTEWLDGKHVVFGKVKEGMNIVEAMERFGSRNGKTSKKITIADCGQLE
# test protocol: Ras-Raf (BRAF RBD) disruption / FRET / MOA assay, KRAS Q61H
# Format: biochemical
# recorded conditions: Ras-Raf disruption/FRET/MOA assay; class symbols; read-out: KRAS Q61H FRET data IC50

Solved cases below.
molecule	experimental result
CCn1c(-c2cccnc2[C@H](C)OC)c2c3cc(ccc31)-c1cccc(c1)C[C@H](NC(=O)[C@H](C(C)C)N1CO[C@@]3(CCN(C(=O)C#CC(C)(C)N4CCC4)C3)C1=O)C(=O)N1CCC[C@H](N1)C(=O)OCC(C)(C)C2 (atropisomer, axis not shown)	1000 to 10000 nM
C=CC(=O)N1CC[C@H](C(=O)N(C)[C@H](C(=O)N[C@H]2Cc3cccc(n3)-c3ccc4c(c3)c(c(-c3cccnc3[C@H](C)OC)n4CC)CC(C)(C)COC(=O)[C@@H]3CCCN(N3)C2=O)C(C)C)C1 (atropisomer, axis not shown)	1000 to 10000 nM
C=CC(=O)N1CC[C@H](C(=O)N(C)[C@H](C(=O)N[C@H]2Cc3cc(O)cc(c3)-c3cc(F)c4c(c3)c(c(-c3ccccc3CCOC)n4CC)CC(C)(C)COC(=O)[C@@H]3CCCN(N3)C2=O)C(C)C)C1	1000 to 10000 nM

Input: # get_value(readout='IC50', item= C=CC(=O)N(C)[C@@H]1CCN(C(=O)N(C)[C@H](C(=O)N[C@H]2Cc3nc(cs3)-c3ccc4c(c3)c(c(-c3cccnc3[C@H](C)OC)n4CC)CC(C)(C)COC(=O)[C@@H]3CCCN(N3)C2=O)C(C)C)C1 (atropisomer, axis not shown) )
Output: 10 to 100 nM

====

# experimental system: NRAS WT (Homo sapiens (Human), UniProt P01111+P62937)
# Sequence (P01111 whole entry): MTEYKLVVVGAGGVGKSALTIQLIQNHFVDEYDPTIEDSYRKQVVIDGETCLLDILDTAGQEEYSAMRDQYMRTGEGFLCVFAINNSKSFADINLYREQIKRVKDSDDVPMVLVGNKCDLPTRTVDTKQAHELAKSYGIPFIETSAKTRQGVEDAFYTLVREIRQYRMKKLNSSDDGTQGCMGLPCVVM
# Sequence (P62937 whole entry): as the sequence (P62937 whole entry) above
# test protocol: Ras-Raf (BRAF RBD) disruption / FRET / MOA assay, NRAS WT
# Format: biochemical
# recorded conditions: read-out: IC50* NRAS WT FRET data
# key: entry, value: IC50

Solved cases below.
compound	measured endpoint	experimental result
C=CC(=O)N1CC(OC[C@H](C(=O)N[C@H]2Cc3cc(F)cc(c3)-c3ccc4c(c3)c(c(-c3cccnc3[C@H](C)OC)n4CC(F)(F)F)CC(C)(C)COC(=O)[C@@H]3CCCN(N3)C2=O)C(C)C)C1 (atropisomer, axis not shown)	IC50	1 to 10 µM
C=CC(=O)N1CCO[C@H]2CN(C(=O)N(C)[C@H](C(=O)N[C@H]3Cc4nc(cs4)-c4ccc5c(c4)c(c(-c4cccnc4[C@H](C)OC)n5CC)CC(C)(C)COC(=O)[C@@H]4CCCN(N4)C3=O)C(C)C)C[C@H]21 (atropisomer, axis not shown)	IC50	1 to 10 µM
C=CC(=O)N1CCOC2(CCN(C(=O)N(C)[C@H](C(=O)N[C@H]3C[C@H]4CN(CCO4)c4ccc5c(c4)c(c(-c4cccnc4[C@H](C)OC)n5CC)CC(C)(C)COC(=O)[C@@H]4CCCN(N4)C3=O)C(C)C)CC2)C1	IC50	0.1 to 1 µM

Please find the next compound below.
Input: # get_value(readout='IC50', item= C=CC(=O)N(C)[C@@H]1C[C@H](C)N(C(=O)N(C)[C@H](C(=O)N[C@H]2Cc3nc(cs3)-c3ccc4c(c3)c(c(-c3cccnc3[C@H](C)OC)n4CC)CC(C)(C)COC(=O)[C@@H]3CCCN(N3)C2=O)C(C)C)C1 (atropisomer, axis not shown) )
Output: 0.01 to 0.1 µM

====

# experimental system: KRAS G13D (Homo sapiens (Human), UniProt P01116+P62937, G13D)
# Sequence (P01116-2 other isoform, or with tags, fused parts or gaps G13D, one chain of several): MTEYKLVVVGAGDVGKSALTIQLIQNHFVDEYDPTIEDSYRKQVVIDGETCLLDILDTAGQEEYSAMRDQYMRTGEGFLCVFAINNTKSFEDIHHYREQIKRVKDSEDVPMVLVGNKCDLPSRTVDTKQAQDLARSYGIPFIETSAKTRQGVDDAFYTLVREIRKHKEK
# test protocol: Ras-Raf (BRAF RBD) disruption / FRET / MOA assay, KRAS G13D
# Assay type: biochemical
# recorded conditions: read-out: IC50* KRAS G13D FRET data
measured endpoint: IC50

Solved cases below.
compound	experimental system	IC50
CCn1c(-c2cccnc2[C@H](C)OC)c2c3cc(ccc31)N1CCO[C@@H](C[C@H](NC(=O)[C@H](C(C)C)N(C)C(=O)[C@@]3(F)CCC(C(=O)C#CC(C)(C)N4CCC4)C3)C(=O)N3CCC[C@H](N3)C(=O)OCC(C)(C)C2)C1 (stereo partly shown) [Example A726]	KRAS G13D (Homo sapiens (Human), UniProt P01116+P62937, G13D)	1000 to 10000 nM
C=CC(=O)N1CC[C@H](C(=O)N(C)[C@H](C(=O)N[C@H]2Cc3nc(cs3)-c3ccc4c(c3)c(c(-c3cc(C5=CCN(C)CC5)cnc3[C@H](C)OC)n4CC)CC(C)(C)COC(=O)[C@@H]3CCCN(N3)C2=O)C(C)C)C1 (atropisomer, axis not shown) [Example A520]	KRAS G13D (Homo sapiens (Human), UniProt P01116+P62937, G13D)	1000 to 10000 nM
C=CC(=O)N1CCOC2(C1)CN(C(=O)N(C)[C@H](C(=O)N[C@H]1Cc3cccc(c3)-c3ccc4c(c3)c(c(-c3cccnc3[C@H](C)OC)n4CC(F)(F)F)CC(C)(C)COC(=O)[C@@H]3CCCN(N3)C1=O)C(C)C)C2 (atropisomer, axis not shown) [Example A538]	KRAS G13D (Homo sapiens (Human), UniProt P01116+P62937, G13D)	100 to 1000 nM

Please find the next compound below.
Input: # get_value(readout='IC50', item= CCn1c(-c2cccnc2[C@H](C)OC)c2c3cc(ccc31)-c1cc(O)cc(c1)C[C@H](NC(=O)[C@H](C(C)C)N(C)C(=O)[C@H]1CCN(C(=O)C#CCOC)C1)C(=O)N1CCC[C@H](N1)C(=O)OCC(C)(C)C2 [Example A266] )
Output: 100 to 1000 nM

====

# experimental system: KRAS Q61H (Homo sapiens (Human), UniProt P01116+P62937, Q61H)
# test protocol: Ras-Raf (BRAF RBD) disruption / FRET / MOA assay, KRAS Q61H
# Type: biochemical
# recorded conditions: Ras-Raf disruption/FRET/MOA assay; class symbols; read-out: KRAS Q61H FRET data IC50
pIC50: −log10 of the molar value.
# key: entry, value: pIC50

compound	pIC50
C=CC(=O)N1CC[C@]2(C1)OCN([C@H](C(=O)N[C@H]1Cc3cccc(c3)-c3ccc4c(c3)c(c(-c3cccnc3[C@H](C)OC)n4CC)CC(C)(C)COC(=O)[C@@H]3CCCN(N3)C1=O)C(C)C)C2=O (atropisomer, axis not shown)	5.00 to 6.00
C=CC(=O)N1CC[C@H](C(=O)N(C)[C@H](C(=O)N[C@H]2Cc3cccc(c3)-c3ccc4c(c3)c(c(-c3cc(CN(C)C)cnc3[C@H](C)OC)n4CC)CC(C)(C)COC(=O)[C@@H]3CCCN(N3)C2=O)C(C)C)C1 (atropisomer, axis not shown)	6.00 to 7.00
C=CC(=O)N1CCC2(CCCN(C(=O)N(C)[C@H](C(=O)N[C@H]3Cc4nc(cs4)-c4ccc5c(c4)c(c(-c4cccnc4[C@H](C)OC)n5CC)CC(C)(C)COC(=O)[C@@H]4CCCN(N4)C3=O)C(C)C)C2)CC1 (atropisomer, axis not shown)	7.00 to 8.00
C=CC(=O)N1CC[C@H](C(=O)N(C)[C@H](C(=O)N[C@H]2CC3=NC=C(O3)c3ccc4c(c3)c(c(-c3cccnc3[C@H](C)OC)n4CC)CC(C)(C)COC(=O)[C@@H]3CCCN(N3)C2=O)C(C)C)C1 (atropisomer, axis not shown) [Example A278]	5.00 to 6.00
CCn1c(-c2cccnc2[C@H](C)OC)c2c3cc(ccc31)-c1cccc(c1)C[C@H](NC(=O)[C@H](C(C)C)N(C)C(=O)C1(F)CCN(C(=O)C#CC(C)(C)N(C)C)CC1)C(=O)N1CCC[C@H](N1)C(=O)OCC(C)(C)C2 (atropisomer, axis not shown)	6.00 to 7.00

Input: # get_value(readout='pIC50', item= CO[C@@H](C)c1ncccc1-c1c2c3cc(ccc3n1CC(F)(F)F)-c1csc(n1)C[C@H](NC(=O)[C@@H](COC1CN(C(=O)C#CC(C)(C)N(C)C)C1)C(C)C)C(=O)N1CCC[C@H](N1)C(=O)OCC(C)(C)C2 (atropisomer, axis not shown) )
Output: 5.00 to 6.00

Input: # get_value(readout='pIC50', item= CO[C@@H](C)c1ncccc1-c1c2c3nc(ccc3n1CC(F)(F)F)-c1cccc(c1)C[C@H](NC(=O)[C@@H](COC1CN(C(=O)C#CC(C)(C)N(C)C)C1)C(C)C)C(=O)N1CCC[C@H](N1)C(=O)OCC(C)(C)C2 (atropisomer, axis not shown) )
Output: < 5.00

====

# experimental system: NRAS WT (Homo sapiens (Human), UniProt P01111+P62937)
# test protocol: Ras-Raf (BRAF RBD) disruption / FRET / MOA assay, NRAS WT
# Type: biochemical
# recorded conditions: read-out: IC50* NRAS WT FRET data
measured endpoint: IC50

compound	IC50
C=CS(=O)(=O)N1CCC2(CCN([C@H](C(=O)N[C@H]3Cc4cc(O)cc(c4)-c4ccc5c(c4)c(c(-c4cccnc4[C@H](C)OC)n5CC)CC(C)(C)COC(=O)[C@@H]4CCCN(N4)C3=O)C(C)C)C2=O)CC1 (atropisomer, axis not shown) [Example A299]	10 to 100 nM

Please find the next compound below.
Input: # get_value(readout='IC50', item= C=CC(=O)N1CCO[C@H]2CN(C(=O)N(C)[C@H](C(=O)N[C@H]3Cc4cccc(n4)-c4ccc5c(c4)c(c(-c4cccnc4[C@H](C)OC)n5CC(F)(F)F)CC(C)(C)COC(=O)[C@@H]4CCCN(N4)C3=O)C(C)C)C[C@H]21 (atropisomer, axis not shown) [Example A595] )
Output: 100 to 1000 nM
